- target under test: PI3Kδ (Homo sapiens)
- Construct: Full length p110 subunits of PI3k α, β and δ, N-terminally labeled with polyHis tag; polyHis (N); made in house; host or cells: Sf9 insect cells (baculovirus)
- Sequence (O00329 whole entry): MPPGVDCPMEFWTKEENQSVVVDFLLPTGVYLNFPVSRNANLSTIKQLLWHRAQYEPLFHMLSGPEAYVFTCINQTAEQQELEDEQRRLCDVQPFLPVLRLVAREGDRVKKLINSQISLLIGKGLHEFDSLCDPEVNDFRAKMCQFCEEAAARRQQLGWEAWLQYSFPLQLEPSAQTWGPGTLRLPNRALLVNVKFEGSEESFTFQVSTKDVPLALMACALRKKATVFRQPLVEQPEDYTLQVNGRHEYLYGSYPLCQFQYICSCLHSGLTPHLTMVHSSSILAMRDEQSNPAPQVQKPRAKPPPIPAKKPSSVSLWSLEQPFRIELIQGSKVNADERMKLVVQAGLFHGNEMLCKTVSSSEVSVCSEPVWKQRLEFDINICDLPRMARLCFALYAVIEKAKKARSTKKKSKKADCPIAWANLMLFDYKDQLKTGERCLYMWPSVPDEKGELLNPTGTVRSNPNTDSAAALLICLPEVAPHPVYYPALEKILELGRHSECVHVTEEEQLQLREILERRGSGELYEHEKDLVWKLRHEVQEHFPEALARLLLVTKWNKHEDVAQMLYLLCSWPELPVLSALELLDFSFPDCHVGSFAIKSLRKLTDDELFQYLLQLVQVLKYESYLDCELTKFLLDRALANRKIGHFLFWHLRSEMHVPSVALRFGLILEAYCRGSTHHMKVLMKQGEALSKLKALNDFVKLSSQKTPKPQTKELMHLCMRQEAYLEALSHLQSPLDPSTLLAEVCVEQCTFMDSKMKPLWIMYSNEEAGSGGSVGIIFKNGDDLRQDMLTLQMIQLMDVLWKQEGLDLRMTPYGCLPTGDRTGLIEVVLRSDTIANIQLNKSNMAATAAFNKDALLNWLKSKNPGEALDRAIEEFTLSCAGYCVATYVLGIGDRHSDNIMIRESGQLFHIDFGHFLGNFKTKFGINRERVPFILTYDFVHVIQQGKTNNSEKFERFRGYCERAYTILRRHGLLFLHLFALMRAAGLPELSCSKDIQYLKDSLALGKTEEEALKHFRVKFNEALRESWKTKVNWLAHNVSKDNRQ
- Sequence (P27986 whole entry partner): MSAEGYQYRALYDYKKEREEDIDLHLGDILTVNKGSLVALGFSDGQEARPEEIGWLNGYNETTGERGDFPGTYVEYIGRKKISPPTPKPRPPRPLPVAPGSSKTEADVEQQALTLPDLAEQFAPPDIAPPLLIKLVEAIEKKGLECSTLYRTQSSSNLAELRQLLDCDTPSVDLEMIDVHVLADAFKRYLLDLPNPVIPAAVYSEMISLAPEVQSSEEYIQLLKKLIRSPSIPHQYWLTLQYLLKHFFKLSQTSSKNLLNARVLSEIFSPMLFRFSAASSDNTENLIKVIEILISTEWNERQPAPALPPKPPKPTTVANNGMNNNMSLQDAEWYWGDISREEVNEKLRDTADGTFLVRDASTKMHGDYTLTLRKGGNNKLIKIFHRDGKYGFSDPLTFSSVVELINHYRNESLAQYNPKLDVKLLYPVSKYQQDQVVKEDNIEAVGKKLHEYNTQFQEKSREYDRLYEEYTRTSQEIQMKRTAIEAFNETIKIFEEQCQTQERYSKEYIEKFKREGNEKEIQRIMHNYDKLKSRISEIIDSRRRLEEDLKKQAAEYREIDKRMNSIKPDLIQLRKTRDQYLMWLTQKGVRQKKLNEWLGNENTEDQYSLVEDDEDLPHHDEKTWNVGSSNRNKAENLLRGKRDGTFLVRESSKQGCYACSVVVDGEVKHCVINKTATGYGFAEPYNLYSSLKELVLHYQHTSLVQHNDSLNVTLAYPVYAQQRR
- assay method text: PI3Kδ Alphascreen assay
- Format: biochemical
pKi: −log10 of the molar value.
observation type: pKi

Worked examples, 4 molecules total:
molecule	quantitative result
CC(Nc1ncnc(N)c1C#N)c1nc2cccc(Cl)c2cc1-c1ccccn1 (stereo not shown)	8.80
CC(Nc1ncnc2[nH]cnc12)c1nc2ccc(F)cc2cc1-c1ccccn1 (racemic)	7.67
N#Cc1c(N)ncnc1NCc1nc2c(F)cccc2cc1-c1ccccn1	6.58
CC(Nc1ncnc(N)c1C#N)c1nc2ccc(F)cc2c(C(=O)NCCN2CCOCC2)c1-c1ccccc1 (stereo not shown)	8.99

a. C[C@H](Nc1ncnc(N)c1C#N)c1nc2ccc(F)cc2c(C(=O)NCCO)c1-c1ccccn1
b. C[C@@H](Nc1ncnc(N)c1C#N)c1nc2ccc(F)cc2c(C#N)c1-c1ccccc1
c. COc1c(-c2ccccc2)c([C@H](C)Nc2ncnc(N)c2C#N)nc2ccc(F)cc12
**Q:** Hey, quick one: sort these by pKi, low to high? Respond with the label ranking, as requested.
**A:** b, a, c
(b: 7.23, a: 8.12, c: 8.93)
